# target-entity: human DGKα (Homo sapiens (Human), UniProt P23743)
# Sequence (P23743 whole entry, looked up): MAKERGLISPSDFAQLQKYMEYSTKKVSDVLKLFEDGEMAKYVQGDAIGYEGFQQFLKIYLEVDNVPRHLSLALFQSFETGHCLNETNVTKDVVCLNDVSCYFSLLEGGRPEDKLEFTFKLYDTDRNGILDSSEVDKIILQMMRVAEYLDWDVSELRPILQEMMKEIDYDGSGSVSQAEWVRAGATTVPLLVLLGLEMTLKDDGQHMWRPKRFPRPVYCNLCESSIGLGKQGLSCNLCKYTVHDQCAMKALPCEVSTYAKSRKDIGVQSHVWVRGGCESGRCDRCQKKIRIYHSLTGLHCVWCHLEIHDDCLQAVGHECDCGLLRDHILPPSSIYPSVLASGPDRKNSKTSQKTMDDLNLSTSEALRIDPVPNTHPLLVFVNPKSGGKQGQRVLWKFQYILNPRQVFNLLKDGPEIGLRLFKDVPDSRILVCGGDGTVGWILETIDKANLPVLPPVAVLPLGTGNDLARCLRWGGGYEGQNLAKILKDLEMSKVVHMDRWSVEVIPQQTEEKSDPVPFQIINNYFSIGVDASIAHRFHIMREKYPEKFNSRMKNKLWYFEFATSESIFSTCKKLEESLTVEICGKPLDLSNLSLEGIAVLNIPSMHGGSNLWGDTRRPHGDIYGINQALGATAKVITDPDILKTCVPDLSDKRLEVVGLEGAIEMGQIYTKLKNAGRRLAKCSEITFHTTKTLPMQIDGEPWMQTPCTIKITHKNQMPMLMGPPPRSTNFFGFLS
# experiment-description: DGKα LIPGLO assay (extruded liposome substrate, ADP-Glo luminescence)
# Format: biochemical
# experimental-context: liposome assay; read-out: DGK alpha LIPGLO IC50
observed-property: IC50 (nM)
Numbers only, in nM.

The following compounds have reported results that may help.
>>> experimental_value("CC[C@@H]1CN(c2nc(=O)n(C)c3ccc(C#N)nc23)[C@@H](C)CN1C(C)c1ccc(OC(F)(F)F)cc1 (single isomer, unassigned) [Example 48]")
16
>>> experimental_value("CC[C@H]1CN(C(C)c2ccc(OCC3CC3)cc2)[C@H](CC)CN1c1nc(=O)n(C)c2ccc(C#N)nc12 (single isomer, unassigned) [Example 24]")
680
>>> experimental_value("CC(c1ccc(OC(F)(F)F)cc1)N1C[C@H](C)N(c2nc(=O)n(C)c3ccc(C#N)nc23)C[C@H]1C (single isomer, unassigned) [Example 132]")
700
>>> experimental_value("C[C@@H]1CN(c2nc(=O)n(C)c3ccc(C#N)nc23)[C@@H](C)CN1C(c1ccc(F)cc1)c1ccon1 (single isomer, unassigned) [Example 162]")
56
>>> experimental_value("CC[C@@H]1CN(c2nc(=O)n(C)c3ccc(C#N)nc23)[C@@H](C)CN1C(c1ccc(OC(F)(F)F)cc1)c1ccccn1 (single isomer, unassigned)")
200

Let us examine a further case.
Form field IC50 for item CC[C@H]1CN(C(C)c2ccc(C(C)(C)C#N)cc2)[C@H](CC)CN1c1nc(=O)n(C)c2ccc(C#N)nc12 (stereo partly drawn) [Example 196] on human DGKα (Homo sapiens (Human), UniProt P23743): 120
